Study Target: isolated recombinant JAK1 kinase domain (Homo sapiens (Human), UniProt P23458)
Sequence (P23458 875-1153): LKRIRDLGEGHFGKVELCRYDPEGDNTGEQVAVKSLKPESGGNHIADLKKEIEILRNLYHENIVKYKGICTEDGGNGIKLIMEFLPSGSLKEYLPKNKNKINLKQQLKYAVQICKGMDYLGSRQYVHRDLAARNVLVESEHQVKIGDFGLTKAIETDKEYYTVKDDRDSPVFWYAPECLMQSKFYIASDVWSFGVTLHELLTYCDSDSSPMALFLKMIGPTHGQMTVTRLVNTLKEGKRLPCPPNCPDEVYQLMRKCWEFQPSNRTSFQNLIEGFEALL
Test Name: JAK1 enzyme assay (Caliper LabChip, peptide phosphorylation)
Assay type: biochemical
Particulars: isolated recombinant JAK1 kinase domain, 25 μM ATP
Readout Kind: Ki (nM)
Express the result in nM but write the number alone.

Which Ki is reported for this compound? N#Cc1ccc(CN2CCN(C(=O)Cn3cc(NC(=O)c4cnn5cccnc45)c(-c4cc(Cl)ccc4OC(F)F)n3)CC2)cc1 [Example 238]
0.45

Also CCNC(=O)CCCN1CCC(n2cc(NC(=O)c3cnn4cccnc34)c(-c3cc(Cl)ccc3OC(F)F)n2)CC1 [Example 156] , if possible.
1.53

Also CN1CCN(C(=O)Cn2cc(NC(=O)c3cnn4cccnc34)c(-c3cc(Cl)ccc3OC(F)F)n2)C(C)(C)C1 [Example 377] , if possible.
0.56

Also O=C(Nc1cn(CC(=O)N2CCC(C(=O)OCCN3CCOCC3)CC2)nc1-c1cc(Cl)ccc1OC(F)F)c1cnn2cccnc12 [Example 336] , if possible.
0.49

Also O=C(O)CN1CCN(C(=O)Cn2cc(NC(=O)c3cnn4cccnc34)c(-c3cc(Cl)ccc3OC(F)F)n2)CC1 [Example 310] , if possible.
0.52

Also CN(CC1OCCO1)C1CCN(C(=O)Cn2cc(NC(=O)c3cnn4cccnc34)c(-c3cc(Cl)ccc3OC(F)F)n2)CC1 [Example 433] , if possible.
0.42

Also CN(C)C1CCN(C(=O)Cn2cc(NC(=O)c3c(N)nn4cccnc34)c(-c3cc(Cl)ccc3OC(F)F)n2)C1 (stereo not shown) [Example 136] , if possible.
0.64
